Consider the following compounds and their measured EC50 readings.
- Tested on: CAIX expressing SKRC52 cells
- Test: In vitro cytotoxicity assay (MTS)
- Format: cell-based, human
- Condition Label: Homo sapiens, SK-RC-52; Condition (a): incubated 72 hours in the presence of the toxic substance

| Compound | EC50 / pM |
| --- | --- |
| COc1cc2[nH]c(C(=O)N3C[C@@H](CCl)c4c3cc(O)c3ccccc43)cc2cc1OCCN(C)C | 55 |
| COc1cc2cc(c1Cl)N(C)C(=O)C[C@@H](OC(=O)[C@@H](C)NC(=O)CCSC)[C@]1(C)O[C@@H]1[C@@H](C)[C@@H]1C[C@](O)(NC(=O)O1)[C@@H](OC)/C=C/C=C(\C)C2 [DM1SMe, DM1-SMe, reference compound] | 500 |
